Quick reference: Activity of the listed items.
# Tested on: Eimeria mitis
# METHOD NOTES: Antiparasitic activity against Eimeria mitis at 50 ppm administered orally through feed after 7 days
# Assay type: functional
VALUE TYPE: Activity

1) Fc1ccc(-c2[nH]c3cc(C4CCNCC4)ccc3c2-c2ccncn2)cc1 ... <50%
2) CCN1CCC(c2ccc3c(-c4ccncc4)c(-c4ccc(F)cc4)[nH]c3c2)CC1 ... 80%
